Biological target: c-Src (Homo sapiens)

{"columns": ["COMPOUND", "Kd / µM"],
 "data": [
  ["NC(=O)CN(CCc1ccc(O)cc1)C(=O)[C@H](CC(=O)O)NC(=O)c1ccc(CN(CC2CC2)C(=O)CCO)cc1 [SrcDEL10]", 7.5]
]}

###

Molecular target: c-Src (Homo sapiens, UniProt P12931)
Sequence (P12931 whole entry, species assumed): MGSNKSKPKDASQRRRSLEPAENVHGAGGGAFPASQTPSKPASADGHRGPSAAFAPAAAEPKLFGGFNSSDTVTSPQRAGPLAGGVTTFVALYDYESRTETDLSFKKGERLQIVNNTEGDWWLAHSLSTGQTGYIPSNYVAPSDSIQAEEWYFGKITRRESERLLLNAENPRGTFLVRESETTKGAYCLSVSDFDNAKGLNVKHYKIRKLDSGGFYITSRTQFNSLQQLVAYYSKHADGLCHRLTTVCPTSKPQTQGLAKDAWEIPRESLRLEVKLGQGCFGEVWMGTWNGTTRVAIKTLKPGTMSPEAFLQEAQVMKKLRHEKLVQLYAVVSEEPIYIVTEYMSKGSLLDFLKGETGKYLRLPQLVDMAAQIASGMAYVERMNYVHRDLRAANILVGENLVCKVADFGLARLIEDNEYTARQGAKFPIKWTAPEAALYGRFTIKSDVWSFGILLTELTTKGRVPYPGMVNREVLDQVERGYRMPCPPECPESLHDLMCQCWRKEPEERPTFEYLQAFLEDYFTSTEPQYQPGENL
Experiment: NADH-based coupled enzyme assay detecting ADP generation
Assay type: biochemical
Conditions: 1 mM ATP, 100 µM compound, 12 nM Src, 30 °C, 3 h

{"columns": ["COMPOUND", "ADP generation relative to compound"],
 "data": [
  ["NC(=O)CN(CCCCCCO)C(=O)c1ccc(CNC(=O)[C@H](Cc2ccc(O)cc2)NC(=O)CCc2ccc(O)cc2)cc1", "little turnover"],
  ["N=C(N)NCCC[C@H](NC(=O)CN(Cc1ccco1)C(=O)CCO)C(=O)N(CCc1ccc(O)cc1)Cc1ccc(C(N)=O)cc1", "large molar excess"],
  ["NC(=O)C(Cc1cccnc1)NC(=O)CN(CCc1ccc(O)cc1)C(=O)C1Cc2c([nH]c3ccccc23)CN1C(=O)CCO (centres unmarked)", "large molar excess"],
  ["NC(=O)C(Cc1ccc(O)cc1)NC(=O)CN(CCCCCCO)C(=O)C1Cc2ccccc2N1C(=O)CCc1ccc(O)cc1 (centres unmarked)", "little turnover"],
  ["NC(=O)[C@H](Cc1cccnc1)NC(=O)CN(CC1CC1)C(=O)CCc1ccc(O)cc1", "large molar excess"]
]}

###

// values below are pIC50; system is c-Src (Homo sapiens, UniProt P12931)
pIC50: −log10 of the molar value.
OBSERVATION_TYPE: pIC50

{"columns": ["COMPOUND", "MEASURED_ON", "OBSERVATION_TYPE", "READOUT_VALUE"],
 "data": [
  ["NC(=O)C(Cc1cccnc1)NC(=O)CN(CCc1ccc(O)cc1)C(=O)C1Cc2c([nH]c3ccccc23)CN1C(=O)CCO (centres unmarked)", "c-Src (Homo sapiens, UniProt P12931)", "pIC50", 4.19],
  ["N=C(N)NCCC[C@H](NC(=O)CN(Cc1ccco1)C(=O)CCO)C(=O)N(CCc1ccc(O)cc1)Cc1ccc(C(N)=O)cc1", "c-Src (Homo sapiens, UniProt P12931)", "pIC50", 4.02]
]}
